AUC(0-t) values for the compounds below.
experiment: AUC (0 to t) in C57 mouse at 5 mg/kg, po; type: ADME, organism-based; conditions: in vivo

{"COMPOUND": "COc1cc2c(cc1OCCOCCOCCOCCN1C(=O)/C(=C\\c3cc(Br)c(O)c(Br)c3)c3cc(I)ccc31)C(C)(CC(=O)Nc1nccs1)NCC2 (configuration not stated)", "AUC(0-t) / ng·h/mL": 59.8}
{"COMPOUND": "COc1cc2c(cc1OCCCCN1C(=O)/C(=C\\c3cc(Br)c(O)c(OC)c3)c3cc(Br)ccc31)C(C)(CC(=O)Nc1nccs1)NCC2 (configuration not stated)", "AUC(0-t) / ng·h/mL": 101}
